biological target: human serotonin 2A receptors (5-HT2AR) (Homo sapiens, UniProt P28223); assay: IP1 accumulation assay (HTRF); settings: IP1 production (proxy for Gq activation), HEK 293 cells expressing human 5-HT2AR, read-out: h5-HT2A EC50
Sequence (P28223 whole entry): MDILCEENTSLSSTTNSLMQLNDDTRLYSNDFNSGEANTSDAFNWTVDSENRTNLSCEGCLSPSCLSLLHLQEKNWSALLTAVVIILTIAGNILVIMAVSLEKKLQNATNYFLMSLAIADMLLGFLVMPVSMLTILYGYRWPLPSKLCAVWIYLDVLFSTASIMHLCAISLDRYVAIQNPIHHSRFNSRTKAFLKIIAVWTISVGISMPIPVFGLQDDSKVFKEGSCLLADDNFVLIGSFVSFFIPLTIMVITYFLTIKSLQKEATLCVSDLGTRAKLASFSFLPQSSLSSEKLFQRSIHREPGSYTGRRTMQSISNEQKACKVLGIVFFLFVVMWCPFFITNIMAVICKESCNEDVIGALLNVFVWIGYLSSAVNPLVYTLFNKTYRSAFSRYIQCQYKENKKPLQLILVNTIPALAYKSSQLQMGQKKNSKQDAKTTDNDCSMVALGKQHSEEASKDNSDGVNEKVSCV
Where a name gives a salt, the structure may show the parent alone.
Parameter: EC50. Scope: all listed entries.

compound	tested.on	parameter.measured	measured.result
CN1CC(c2c[nH]c3ncccc23)=CC(C)(C)C1 [Compound 108, hydrochloride]	human serotonin 2A receptors (5-HT2AR) (Homo sapiens, UniProt P28223)	EC50	> 10 µM
C1=C(c2c[nH]c3ncccc23)CNCC12CCC2	human serotonin 2A receptors (5-HT2AR) (Homo sapiens, UniProt P28223)	EC50	1 to 10 µM

Lookup: Bench note: what EC50 did C1=C(c2nsc3ccccc23)CNCC1 show?
Found: < 0.1 µM

Lookup: Bench note: what EC50 did CN1CCC2CC2(c2c[nH]c3ncccc23)C1 (stereo not drawn) show?
Found: > 10 µM

Lookup: Bench note: what EC50 did FC(F)(F)C1C=C(c2c[nH]c3ncccc23)CNC1 (stereo not drawn) show?
Found: 1 to 10 µM

Lookup: Bench note: what EC50 did CC1(C)C=C(c2c[nH]c3ncccc23)CNC1 [Compound 107, hydrochloride] show?
Found: > 10 µM

Lookup: Bench note: what EC50 did C1=C(c2c[nH]c3ncccc23)C2(CC2)NCC1 [Compound 147, hydrochloride] show?
Found: 1 to 10 µM

Lookup: Bench note: what EC50 did N#CC1C=C(c2c[nH]c3ncccc23)CNC1 (stereo not drawn) show?
Found: > 10 µM

Lookup: Bench note: what EC50 did CN1C2CC=C(c3c[nH]c4ncccc34)C1CC2 (stereo not drawn) show?
Found: > 10 µM

###

Target: human serotonin 2A receptors (5-HT2AR) (Homo sapiens, UniProt P28223)
Construct: expressed in transfected cells; host or cells: HEK 293 cells
Test: IP1 accumulation assay (HTRF)
Format: cell-based
Set-up: key: A=<100; B=100 to 1000; C=>1000 to 10000; D=>10000; E=inactive
Conditions: IP1 production (proxy for Gq activation), HEK 293 cells expressing human 5-HT2AR
Protocol: The functional activity of disclosed compounds is measured using an IP1 (inositol monophosphate) accumulation assay. The effects of disclosed compounds on IP1 production (a proxy for Gq activation) was measured in HEK 293 cells expressing human serotonin 2A receptors (5-HT2AR) using a Homogeneous Time Resolved Fluorescence (HTRF) assay. Standard protocols are followed. […] Following incubation, the cells are lysed, and the fluorescence acceptor and donor are added. […]
Where a name gives a salt, the structure may show the parent alone.

molecule	tested.on	h5-HT2A EC50
CC1C=C(c2c[nH]c3ncccc23)CN(CC(C)(F)F)C1 (single isomer, unassigned) [103 Isomer 2]	human serotonin 2A receptors (5-HT2AR) (Homo sapiens, UniProt P28223)	E
CC1(C)CC=C(c2c[nH]c3ncccc23)CN1 [Compound 148, hydrochloride]	human serotonin 2A receptors (5-HT2AR) (Homo sapiens, UniProt P28223)	E
C1=C(c2c[nH]c3ncccc23)C2CC1CN2 (stereo not drawn) [Compound 134]	human serotonin 2A receptors (5-HT2AR) (Homo sapiens, UniProt P28223)	E

###

Parameter: Emax. Scope: all listed entries.
target: human serotonin 2A receptors (5-HT2AR) (Homo sapiens, UniProt P28223); construct: expressed in transfected cells; host or cells: HEK 293 cells; experiment: IP1 accumulation assay (HTRF); format: cell-based; conditions: HEK293, IP1 production, HEK 293 cells expressing human 5-HT2AR, relative to 5-HT, read-out: h5-HT2A Emax
Where a name gives a salt, the structure may show the parent alone.

Worked examples, 2 molecules total:
molecule	tested.on	Emax
C1=C(c2c[nH]c3ncccc23)C2(CC2)NCC1 [Compound 147, hydrochloride]	human serotonin 2A receptors (5-HT2AR) (Homo sapiens, UniProt P28223)	> 90%
FC(F)(F)C1C=C(c2c[nH]c3ncccc23)CNC1 (centres unmarked)	human serotonin 2A receptors (5-HT2AR) (Homo sapiens, UniProt P28223)	75 to 90%

Lookup: Bench note: what Emax did CC1C=C(c2c[nH]c3ncccc23)CN(CC(F)(F)C(F)(F)F)C1 (single isomer, unassigned) [105 Isomer 2] show?
Found: < 50%

Lookup: Bench note: what Emax did CN1CC(c2c[nH]c3ncccc23)=CC2(CCC2)C1 [Compound 146, dihydrochloride] show?
Found: 50 to 75%

Lookup: Bench note: what Emax did CC1(C)NCCC=C1c1c[nH]c2ncccc12 show?
Found: < 50%

Lookup: Bench note: what Emax did CC1C=C(c2c[nH]c3ncccc23)CN(CC(C)(F)F)C1 (single isomer, unassigned) [103 Isomer 1] show?
Found: < 50%

Lookup: Bench note: what Emax did C1=C(c2c[nH]c3ncccc23)C2CC1CN2 (centres unmarked) show?
Found: < 50%

Lookup: Bench note: what Emax did C1=C(c2c[nH]c3ncccc23)CNCC12CCC2 show?
Found: < 50%

Lookup: Bench note: what Emax did CCN1CC(c2c[nH]c3ncccc23)=CC2(CC2)C1 show?
Found: 75 to 90%

Lookup: Bench note: what Emax did CC1(C)CC=C(c2c[nH]c3ncccc23)CN1 [Compound 148, hydrochloride] show?
Found: < 50%

Lookup: Bench note: what Emax did C1=C(c2nsc3ccccc23)CNCC1 show?
Found: > 90%

###

Parameter: pEC50. Scope: all listed entries.
target: human serotonin 2A receptors (5-HT2AR) (Homo sapiens, UniProt P28223); experiment: IP1 accumulation assay (HTRF); conditions: IP1 production (proxy for Gq activation), HEK 293 cells expressing human 5-HT2AR, read-out: h5-HT2A EC50
pEC50: −log10 of the molar value. Structures can show the parent of a compound that is named as a salt.

compound	pEC50
CCN1CC(c2c[nH]c3ncccc23)=CC2(CC2)C1	5.00 to 6.00
CN1CC(c2c[nH]c3ncccc23)=CC2(CCC2)C1 [Compound 146, dihydrochloride]	6.00 to 7.00

Here is another compound to look at.
Lookup: Bench note: what pEC50 did CN1CC(c2c[nH]c3ncccc23)=CC(C(F)(F)F)C1 (stereo not drawn) show?
Found: < 5.00

Sourced from patent US12486268B2
